- Target Under Test: Troponin I, cardiac muscle (Homo sapiens) + Troponin T, cardiac muscle (Homo sapiens) + Troponin C, slow skeletal and cardiac muscles (Homo sapiens) (UniProt P19429+P45379+P63316)
- Protocol Notes: cardiac RTF calcium sensitivity activators, confirmation, biochemical, IANBD-TnC fluorescence, triplicate (AID 504383);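 note: 0% = DMSO at 0.472 mM calcium and 100% = DMSO at 2.9 mM calcium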
- Condition Label: IANBD-labeled cardiac RTF, Ca2+ sensitivity fluorescence; at 7.2 µM; hits give high values; scaled from EC20 to saturating calcium; tested at EC20 calcium, 0.472 mM
The campaign covered roughly 2,500 compounds. About 1,200 (48%) were called active. The set was probably picked from earlier hits. This is one part of the list.
Measured Parameter: activation (%)
Field format: number, assumed %, no unit text.

These recorded examples may help you get a feel for the data.
Cc1cc(C)c2c(SC(C)C)nc(N)nc2n1; 18.3
CCCCn1c(=O)[nH]c2nc3cc(N)ccc3nc2c1=O; 0.26
Cc1cc([N+](=O)[O-])ccc1-c1ccc(/C=N/NC(=O)c2ccc(Br)o2)o1; 7.92
Fc1ccc(C2=CC(c3ccc(Br)o3)n3ncnc3N2)cc1 (stereo not drawn); 5.63
CCOc1cc(N2CCOCC2)c(OCC)cc1NC(=O)CCS(=O)(=O)c1ccc(Cl)cc1; 72

For the molecule shown here, CN(N=Nc1ccc([N+](=O)[O-])cc1)c1ccccc1 , give the reported activation.
36.2

For the molecule shown here, CCC1SC(=Nc2cccc(C)c2)NC1=O (stereo not drawn) , give the reported activation.
143

====

- Target Under Test: Troponin I, cardiac muscle (Homo sapiens) + Troponin T, cardiac muscle (Homo sapiens) + Troponin C, slow skeletal and cardiac muscles (Homo sapiens) (UniProt P19429+P45379+P63316)
- Protocol Notes: cardiac RTF calcium sensitivity activators, confirmation, biochemical, IANBD-TnC fluorescence, triplicate (AID 504383);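 note: 0% = DMSO at 0.472 mM calcium and 100% = DMSO at 2.9 mM calcium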
- Condition Label: IANBD-labeled cardiac RTF, Ca2+ sensitivity fluorescence; at 7.2 µM; scaled from EC20 to saturating calcium; tested at EC20 calcium, 0.472 mM
Out of some 2,500 compounds screened, about 1,200 (48%) were called active.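 How the source made its calls: active means mean activation above the low control average plus 3 SD, as set in the primary screen (cut at about 12% in these data); inactive means the rest.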 So high a share suggests a set chosen from earlier hits. The list shows a part of the results.
Pick from class 1 for active, class 0 for inactive when you respond.

CCOC(=O)CN1C(=O)S/C(=C/C=C/c2ccc(N(C)C)cc2)C1=O; class 0

Any idea what this test logged for CN(C)c1ccc(/C=C2\SC(=O)N(CC(O)Cn3c4ccccc4c4ccccc43)C2=O)cc1 (centres undefined) ?
class 1

Any idea what this test logged for O=C(CCc1nc2sc3c(c2c(=O)[nH]1)CCCC3)Nc1ccccc1Cl ?
class 1

Any idea what this test logged for CCOC(=O)C1CCCN(C(=O)c2cccc(S(=O)(=O)N3CC(C)OC(C)C3)c2)C1 (centres undefined) ?
class 0

====

- Target Under Test: Troponin I, cardiac muscle (Homo sapiens) + Troponin T, cardiac muscle (Homo sapiens) + Troponin C, slow skeletal and cardiac muscles (Homo sapiens) (UniProt P19429+P45379+P63316)
- Protocol Notes: cardiac RTF calcium sensitivity activators, confirmation, biochemical, IANBD-TnC fluorescence, triplicate (AID 504383);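 note: 0% = DMSO at 0.472 mM calcium and 100% = DMSO at 2.9 mM calcium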
- Condition Label: IANBD-labeled cardiac RTF, Ca2+ sensitivity fluorescence; at 7.2 µM; hits give high values; scaled from EC20 to saturating calcium; tested at EC20 calcium, 0.472 mM
The whole screen tested about 2,500 compounds, of which about 1,200 (48%) were called active. The set was probably picked from earlier hits. The list shows a part of the results.
Measured Parameter: activation (%)
Field format: number, assumed %, no unit text.

For the compound shown here, CCC(Oc1cc(Cl)ccc1Cl)C(=O)NNC(=O)CCC(=O)O (stereo not given) , give the reported activation.
12.2

For the compound shown here, CC(=O)c1ccc(NC(=O)C2CCCN(S(=O)(=O)c3c(C)[nH]c(=O)[nH]c3=O)C2)cc1 (stereo not given) , give the reported activation.
58.6

For the compound shown here, O=S(=O)(c1ccc(F)cc1)N1CN(Cc2ccco2)c2nc3ccccc3nc21 , give the reported activation.
19

For the compound shown here, COCCCn1c(=O)/c(=C\c2ccccc2OC(C)C)s/c1=C(/C#N)C(=O)Nc1ccc(C(=O)O)cc1 , give the reported activation.
8.94

For the compound shown here, CS(=O)(=O)Nc1nc2n(n1)C(c1ccccc1)C=C(c1ccc(Br)cc1)N2 (stereo not given) , give the reported activation.
35.8

For the compound shown here, CCCCCCc1cc2cc(-c3nnc(-c4ccccc4)o3)c(=O)oc2cc1O , give the reported activation.
4.49
